Task for the reader: assign each of the following compounds its reported %Inh.
Tested on: PIP5K1C
Conditions: concentration: 1 μM, replicates: in singlicate; n = 1;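 note: KINOMEscan kinase panel screen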
One number for each entry, in %.

// below: answered compounds
{"columns": ["Compound smiles", "Result type", "Reported"],
 "data": [
  ["Cn1cc(-c2ccc3c(c2)CCN3C(=O)Cc2cccc(F)c2)c2c(N)ncnc21", "%Inh", 56],
  ["CCn1c(-c2nonc2N)nc2c(C#CC(C)(C)O)nc(OC[C@H](N)c3ccccc3)cc21", "%Inh", 90.8],
  ["O=C(Nc1cccc(Oc2ccc3nc(NC(=O)C4CC4)cn3n2)c1)c1ccccc1C(F)(F)F", "%Inh", 33]
]}

Need %Inh for each of these compounds.
1. c1ccc(Oc2ccc(Nc3ccnc4cc(-c5ccc(CNCCN6CCOCC6)o5)ccc34)cc2)nc1
2. c1ccc(-c2n[nH]cc2Nc2ccnc3ccccc23)nc1
3. C[C@@H](Oc1cc(-n2cnc3cc(-c4ccnc(NCCS(C)(=O)=O)c4)ccc32)sc1C(N)=O)c1ccccc1Cl

1. 71
2. 73
3. 14

====

Test system: DDR2
Conditions: concentration: 1 μM, replicates: in singlicate; n = 1
Binarize %Inh at 20%; below is Yes, at or above is No.

Does Cn1cc(-c2ccc3c(c2)CCN3C(=O)Cc2cccc(F)c2)c2c(N)ncnc21 have %Inh strictly under 20%?
No

Does Nc1ncc(-c2ccc3nccc(-c4ccncc4)c3c2)cc1S(=O)(=O)N1CCOCC1 have %Inh strictly under 20%?
Yes

Does Oc1cc(Nc2ccnc3cc(I)ccc23)ccc1F have %Inh strictly under 20%?
Yes

Does Cc1ccc(C(=O)Nc2ccc(Nc3ccnc4cc(-c5nccs5)ccc34)cc2O)cc1.Cl have %Inh strictly under 20%?
No

Does COc1ccc(Nc2nccc(N3CCC(NC(=O)Nc4cccc(OC)c4)C3)n2)cc1 (stereo not shown) have %Inh strictly under 20%?
No

Does Cc1occc1-c1ncc(OC[C@@H](N)Cc2c[nH]c3ccccc23)cc1-c1ccc2[nH]nc(C)c2c1.O=C(O)C(F)(F)F have %Inh strictly under 20%?
Yes

Does CNC(=O)c1ccccc1Nc1nc(Nc2ccc(N3CCOCC3)cc2)ncc1Cl.Cl have %Inh strictly under 20%?
No

====

Task for the reader: assign each of the following compounds its reported %Inh.
Tested on: ACVR1B
Settings: concentration: 1 μM, replicates: in singlicate; n = 1
Give bare numbers, in %.

{"columns": ["Compound", "Result type", "Unit info", "Reported"],
 "data": [
  ["COC(=O)Nc1nc2cc(Oc3ccc(NC(=O)Nc4cc(C(F)(F)F)ccc4F)cn3)ccc2[nH]1.Cl.Cl [GW681170]", "%Inh", "%", 0],
  ["COCCOCCOc1cc2ncc3c4ccc(C#N)cc4[nH]c3c2cc1OC", "%Inh", "%", 0],
  ["COc1cc(Nc2nccc(-c3c(-c4cccc(NC(=O)c5c(F)cccc5F)c4)nn4ncccc34)n2)cc(OC)c1OC [GSK327238]", "%Inh", "%", 14],
  ["COc1ccc(-c2coc3ccc(-c4nnc(SCc5ccc(OC)c(C(F)(F)F)c5)o4)cc23)cc1", "%Inh", "%", 7],
  ["Cl.c1ccc(-c2ccc3c(Nc4ccc5[nH]ccc5c4)ccnc3c2)nc1 [GW440138]", "%Inh", "%", 0],
  ["C[C@@H]1CC[C@@H](C(=O)Nc2ccccc2)CN1c1cc(-c2ccc3c(N)n[nH]c3c2)nc(N)n1 [GSK2286062]", "%Inh", "%", 0],
  ["Cc1ccc(F)c(C(=O)Nc2cccc(-c3nn4ccccc4c3-c3ccnc(Nc4cccc(F)c4)n3)c2)c1F [GSK361061]", "%Inh", "%", 60]
]}

Please report the recorded %Inh for CN(C)S(=O)(=O)c1cc(-c2ccc3nccc(-c4cccc(S(N)(=O)=O)c4)c3c2)cnc1N [GSK1669921] .
0

====

Task for the reader: assign each of the following compounds its reported %Inh.
System: LIMK2
Details: concentration: 1 μM, replicates: in singlicate; n = 1
Numbers only, in %.

{"columns": ["Compound smiles", "Reported"],
 "data": [
  ["CN(c1ccc(NC(=O)Nc2cc(C(F)(F)F)ccc2F)cc1)c1ccnc(Nc2ccc(S(N)(=O)=O)cc2)n1", 84],
  ["Clc1ccc(-c2nn3ncccc3c2-c2ccnc(Nc3ccc4c(c3)OCCO4)n2)cc1", 0],
  ["Cc1ccc(C(=O)N2CC[C@@H](O)C2)cc1-n1c(C)cc(OCc2ccc(F)cc2F)c(Br)c1=O", 0],
  ["c1ccc(Oc2ccc(Nc3ccnc4cc(-c5ccc(CNCCN6CCOCC6)o5)ccc34)cc2)nc1", 0],
  ["O=C(Nc1cccc(-c2nn3ccccc3c2-c2ccnc(Nc3cccc(C(F)(F)F)c3)n2)c1)c1c(F)cccc1F", 5]
]}

Need %Inh for each of these compounds.
1. CCn1c(-c2nonc2N)nc2c(C#CC(C)(C)O)nc(OC[C@H](N)c3ccccc3)cc21
2. O=C(Nc1cccc(Oc2ccc3nc(NC(=O)C4CC4)cn3n2)c1)c1ccccc1C(F)(F)F

6
7

Need %Inh for each of these compounds.
1. CCS(=O)(=O)c1ccc(OC)c(Nc2nccc(-c3c(-c4cccc(NC(=O)c5c(F)cccc5F)c4)nn4ncccc34)n2)c1
2. COc1ccc(CNC(=O)NC2CCN(c3ccnc(Nc4ccc(F)cc4)n3)CC2)cc1
3. CSc1cccc2c(-c3ccncn3)c(-c3ccc(F)cc3)nn12
4. CNC(=O)c1ccccc1Nc1nc(Nc2ccc(N3CCOCC3)cc2)ncc1Cl.Cl
5. CCCCc1nn2ncccc2c1-c1ccnc(Nc2ccc(N3CCN(C)CC3)cc2)n1
6. CC(C)(C)c1ccc2nccc(Nc3cccc(O)c3)c2c1

3
0
0
30
97
1

====

Tested on: CSF1R-autoinhibited
Settings: concentration: 1 μM, replicates: in singlicate; n = 1
Result type: %Inh (%)
Answers are plain numbers, in %.

// below: answered molecules
{"columns": ["Molecule", "%Inh / %"],
 "data": [
  ["NCCCC(NC(=O)c1cc(Br)c(-c2ccnc3[nH]ccc23)s1)c1ccccc1.O=C(O)C(F)(F)F.O=C(O)C(F)(F)F (stereo not drawn)", 0],
  ["CC(=O)Nc1nc2cnc(Nc3cc(NC(=O)c4cccc(C5(C#N)CC5)c4Cl)ccc3C)nc2s1", 15]
]}

Now for another entry.
Please report the recorded %Inh for FC(F)(F)c1ccc(/C=C/c2cncnc2Nc2ccc3[nH]c(Cc4ccccc4)nc3c2)cc1 .
0

====

Task for the reader: assign each of the following molecules its reported %Inh.
Test system: ASK1
Construct: gene MAP3K5
Conditions: concentration: 1 μM, replicates: in singlicate; n = 1
One number for each entry, in %.

// below: answered molecules
{"columns": ["Molecule", "Target desc", "%Inh (%)"],
 "data": [
  ["Cn1cc(-c2ccc3c(c2)CCN3C(=O)Cc2cccc(F)c2)c2c(N)ncnc21 [GSK2603358]", "ASK1", 11],
  ["O=C(Nc1ccccc1F)NC1CCN(c2ccnc(Nc3ccc(F)cc3)n2)CC1 [GSK1379800]", "ASK1", 4],
  ["Cl.Cl.NCC(NC(=O)c1cc(-c2ccccc2)c(-c2ccnc3[nH]ccc23)s1)c1ccccc1 (stereo not shown) [GSK1321561]", "ASK1", 0]
]}

Need %Inh for each of these molecules.
1. c1ccc(-c2n[nH]cc2Nc2ccnc3ccccc23)nc1 [GW694077]
2. Nc1ncc(-c2cccnc2)c2scc(-c3ccc4c(c3)CCN4C(=O)Cc3ccccc3)c12 [GSK683281]
3. Cl.c1ccc(-c2ccc3c(Nc4ccc5[nH]ncc5c4)ccnc3c2)nc1 [GW440137]
4. Nc1ncc(-c2ccc3nccc(-c4ccncc4)c3c2)cc1S(=O)(=O)N1CCOCC1 [GSK1627798]

[0, 22, 0, 0]

Need %Inh for each of these molecules.
1. CC(C)(C)c1ccc2nccc(Nc3cccc(O)c3)c2c1 [GW856795]
2. O=c1[nH]cc(-c2ccc(N3CCOCC3)cc2)c2sc(-c3cn[nH]c3)cc12 [GSK2276055]

1: 0; 2: 0

Please report the recorded %Inh for CCCCc1nn2ncccc2c1-c1ccnc(Nc2ccc(N3CCN(C)CC3)cc2)n1 [GW684941] .
0

====

Tested on: BRSK1
Details: concentration: 1 μM, replicates: in singlicate; n = 1
Result type: %Inh (%)
Give bare numbers, in %.

// below: answered compounds
{"columns": ["Compound", "Result type", "Reported"],
 "data": [
  ["Cl.Cl.NCC(NCc1ccc(-c2ccnc3[nH]ccc23)s1)c1ccccc1 (centres unmarked)", "%Inh", 0],
  ["Nc1ncc(-c2ccc3nccc(-c4ccncc4)c3c2)cc1S(=O)(=O)N1CCOCC1", "%Inh", 0],
  ["Cl.Cl.NCC(NC(=O)c1cc(-c2ccccc2)c(-c2ccnc3[nH]ccc23)s1)c1ccccc1 (centres unmarked)", "%Inh", 0],
  ["Nc1ncnc2c1nc(-c1ccccc1)n2-c1ccccc1", "%Inh", 15]
]}

Now for another entry.
// lookup %Inh | system=BRSK1 | key= COc1cccc(-c2ccc3c(NC(=O)C4CC4)n[nH]c3n2)c1
8
